Attribution: the kinase profiling compilation of Christmann-Franck et al. (2016)

biological target: PRPF4B (human); assay: KINOMEscan competition binding; conditions: compound 1.0 µM
In this section, each of the compounds is paired with its reported kinase still bound, per cent of control.
Only the number, expressed in %, is required.

Here is how some compounds turned out for kinase still bound, per cent of control.
CN(C)C/C=C/C(=O)Nc1cccc(C(=O)Nc2ccc(Nc3nccc(/C(C#N)=C4\Nc5ccccc5S4)n3)cc2)c1 ... 100
CN(C)C/C=C/C(=O)Nc1cccc(C(=O)Nc2ccc(Nc3nccc(-c4cccnc4)n3)cc2)c1 ... 93
Cc1cc(NC(=O)c2cccc(NC(=O)/C=C/CN(C)C)c2)ccc1Nc1nccc(-c2cccnc2)n1 ... 100

Challenge: Form field: reported kinase still bound, per cent of control of CN(C)C/C=C/C(=O)Nc1cccc(C(=O)Nc2ccc(Nc3nccc(-c4c(-c5ccccc5)nn5ccccc45)n3)cc2)c1
Response given: 100

* * *

test system: RET (human), P07949 [M918T]; experiment: KINOMEscan competition binding; conditions: compound 1.0 µM
Sequence (P07949 whole entry M918T, looked up): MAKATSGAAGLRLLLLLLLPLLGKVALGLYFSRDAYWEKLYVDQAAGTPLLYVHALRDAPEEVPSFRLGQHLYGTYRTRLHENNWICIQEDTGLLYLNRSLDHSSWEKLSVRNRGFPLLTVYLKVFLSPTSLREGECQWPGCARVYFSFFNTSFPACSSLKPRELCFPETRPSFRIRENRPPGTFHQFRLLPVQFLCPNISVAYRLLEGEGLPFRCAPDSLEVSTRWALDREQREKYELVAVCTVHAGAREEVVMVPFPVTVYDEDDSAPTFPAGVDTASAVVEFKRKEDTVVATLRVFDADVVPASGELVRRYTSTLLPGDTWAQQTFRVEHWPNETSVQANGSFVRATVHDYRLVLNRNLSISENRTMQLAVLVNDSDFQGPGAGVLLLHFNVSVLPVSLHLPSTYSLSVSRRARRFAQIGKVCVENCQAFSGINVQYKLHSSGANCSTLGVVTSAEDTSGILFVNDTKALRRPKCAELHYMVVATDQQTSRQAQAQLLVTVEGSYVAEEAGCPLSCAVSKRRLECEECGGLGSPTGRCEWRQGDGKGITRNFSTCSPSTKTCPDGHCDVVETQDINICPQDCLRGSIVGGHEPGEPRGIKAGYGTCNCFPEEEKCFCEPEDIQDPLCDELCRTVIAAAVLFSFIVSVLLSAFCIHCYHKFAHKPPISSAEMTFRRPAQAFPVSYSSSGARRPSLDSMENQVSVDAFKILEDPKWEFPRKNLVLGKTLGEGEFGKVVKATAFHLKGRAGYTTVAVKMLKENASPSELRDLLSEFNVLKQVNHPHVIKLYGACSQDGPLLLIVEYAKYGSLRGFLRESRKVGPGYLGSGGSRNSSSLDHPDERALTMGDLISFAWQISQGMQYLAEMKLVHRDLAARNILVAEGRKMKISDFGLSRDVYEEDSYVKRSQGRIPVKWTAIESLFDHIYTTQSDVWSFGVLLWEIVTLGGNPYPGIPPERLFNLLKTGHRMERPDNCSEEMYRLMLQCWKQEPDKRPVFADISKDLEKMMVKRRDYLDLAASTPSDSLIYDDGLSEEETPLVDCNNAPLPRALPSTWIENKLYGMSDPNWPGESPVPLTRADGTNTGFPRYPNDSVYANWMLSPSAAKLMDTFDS
EXPERIMENTAL ENDPOINT: kinase still bound, per cent of control (%)
Only the number, expressed in %, is required.

Cc1cc(NC(=O)c2cccc(NC(=O)/C=C/CN(C)C)c2)ccc1Nc1nccc(-c2cccnc2)n1 ... 90
CN(C)C/C=C/C(=O)Nc1cccc(C(=O)Nc2ccc(Nc3nccc(-c4c(-c5ccccc5)nn5ccccc45)n3)cc2)c1 ... 10
CN(C)C/C=C/C(=O)Nc1cccc(C(=O)Nc2ccc(Nc3nccc(/C(C#N)=C4\Nc5ccccc5S4)n3)cc2)c1 ... 17

Continue with the molecule presented below.
Challenge: Form field: reported kinase still bound, per cent of control of CN(C)C/C=C/C(=O)Nc1cccc(C(=O)Nc2ccc(Nc3nccc(-c4cccnc4)n3)cc2)c1
Response given: 100

* * *

molecular target: PDPK1 (human) (UniProt O15530); experiment: KINOMEscan competition binding; conditions: compound 1.0 µM
Sequence (O15530 whole entry, looked up): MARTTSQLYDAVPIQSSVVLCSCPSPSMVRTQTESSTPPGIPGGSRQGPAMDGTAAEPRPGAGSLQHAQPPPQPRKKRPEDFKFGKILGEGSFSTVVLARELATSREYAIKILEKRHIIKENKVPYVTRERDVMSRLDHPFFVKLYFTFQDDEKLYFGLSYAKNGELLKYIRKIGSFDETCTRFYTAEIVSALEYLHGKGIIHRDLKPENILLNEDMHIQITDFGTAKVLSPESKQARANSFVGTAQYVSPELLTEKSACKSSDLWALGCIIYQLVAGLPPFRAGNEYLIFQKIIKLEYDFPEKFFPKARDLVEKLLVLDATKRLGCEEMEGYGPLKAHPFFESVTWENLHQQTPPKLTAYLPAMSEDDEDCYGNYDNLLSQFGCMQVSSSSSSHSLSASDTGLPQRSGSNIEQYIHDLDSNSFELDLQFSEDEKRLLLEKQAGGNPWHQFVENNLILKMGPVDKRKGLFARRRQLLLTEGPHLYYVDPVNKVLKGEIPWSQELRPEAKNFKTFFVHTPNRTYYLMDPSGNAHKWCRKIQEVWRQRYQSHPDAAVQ
EXPERIMENTAL ENDPOINT: kinase still bound, per cent of control (%)
Only the number, expressed in %, is required.

CN(C)C/C=C/C(=O)Nc1cccc(C(=O)Nc2ccc(Nc3nccc(/C(C#N)=C4\Nc5ccccc5S4)n3)cc2)c1 ... 100
Cc1cc(NC(=O)c2cccc(NC(=O)/C=C/CN(C)C)c2)ccc1Nc1nccc(-c2cccnc2)n1 ... 61
CN(C)C/C=C/C(=O)Nc1cccc(C(=O)Nc2ccc(Nc3nccc(-c4cccnc4)n3)cc2)c1 ... 93

Continue with the compound presented below.
Challenge: Tell me reported kinase still bound, per cent of control for CN(C)C/C=C/C(=O)Nc1cccc(C(=O)Nc2ccc(Nc3nccc(-c4c(-c5ccccc5)nn5ccccc45)n3)cc2)c1 , tested with PDPK1 (human) (UniProt O15530).
Response given: 100

* * *

molecular target: DDR1 (human); assay: KINOMEscan competition binding; details: compound 1.0 µM
In this section, each of the compounds is paired with its reported kinase still bound, per cent of control.
Only the number, expressed in %, is required.

Here is how some compounds turned out for kinase still bound, per cent of control.
Cc1cc(NC(=O)c2cccc(NC(=O)/C=C/CN(C)C)c2)ccc1Nc1nccc(-c2cccnc2)n1 ... 93
CN(C)C/C=C/C(=O)Nc1cccc(C(=O)Nc2ccc(Nc3nccc(-c4cccnc4)n3)cc2)c1 ... 100
CN(C)C/C=C/C(=O)Nc1cccc(C(=O)Nc2ccc(Nc3nccc(-c4c(-c5ccccc5)nn5ccccc45)n3)cc2)c1 ... 0

Continue with the compound presented below.
Challenge: Tell me reported kinase still bound, per cent of control for CN(C)C/C=C/C(=O)Nc1cccc(C(=O)Nc2ccc(Nc3nccc(/C(C#N)=C4\Nc5ccccc5S4)n3)cc2)c1 , tested with DDR1 (human).
Response given: 59
